Molecular target: adenosine A3 receptor (Homo sapiens, UniProt P0DMS8)
Sequence (P0DMS8 1-318): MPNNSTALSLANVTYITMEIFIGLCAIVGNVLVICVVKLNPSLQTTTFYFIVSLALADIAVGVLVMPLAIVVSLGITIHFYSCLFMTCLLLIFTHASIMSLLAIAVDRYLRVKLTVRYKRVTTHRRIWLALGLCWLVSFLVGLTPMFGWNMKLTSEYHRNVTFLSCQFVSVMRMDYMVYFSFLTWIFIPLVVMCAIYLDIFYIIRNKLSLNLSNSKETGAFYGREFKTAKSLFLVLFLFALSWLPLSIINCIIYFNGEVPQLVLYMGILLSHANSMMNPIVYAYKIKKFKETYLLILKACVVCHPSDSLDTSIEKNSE
quantity kind: pKi
In simple prose, pKi is minus the logarithm base ten of a concentration in moles per litre.

Input: I have this molecule here, Nc1ncnc2c1ncn2[C@@H]1O[C@H](CO)[C@@H](O)[C@H]1OCOCCCc1ccccc1 [Compound 12] , and I need its recorded pKi.
Output: 5.66
